biological target: Protein translocase subunit SecA (Escherichia coli (strain K12)) (UniProt P10408); assay: Assay to Identify E. coli SecA ATPase Inhibitors; format: functional; set-up: scale not given: direction of the effect not stated beside the values; details: 30 µM
Sequence (P10408 whole entry): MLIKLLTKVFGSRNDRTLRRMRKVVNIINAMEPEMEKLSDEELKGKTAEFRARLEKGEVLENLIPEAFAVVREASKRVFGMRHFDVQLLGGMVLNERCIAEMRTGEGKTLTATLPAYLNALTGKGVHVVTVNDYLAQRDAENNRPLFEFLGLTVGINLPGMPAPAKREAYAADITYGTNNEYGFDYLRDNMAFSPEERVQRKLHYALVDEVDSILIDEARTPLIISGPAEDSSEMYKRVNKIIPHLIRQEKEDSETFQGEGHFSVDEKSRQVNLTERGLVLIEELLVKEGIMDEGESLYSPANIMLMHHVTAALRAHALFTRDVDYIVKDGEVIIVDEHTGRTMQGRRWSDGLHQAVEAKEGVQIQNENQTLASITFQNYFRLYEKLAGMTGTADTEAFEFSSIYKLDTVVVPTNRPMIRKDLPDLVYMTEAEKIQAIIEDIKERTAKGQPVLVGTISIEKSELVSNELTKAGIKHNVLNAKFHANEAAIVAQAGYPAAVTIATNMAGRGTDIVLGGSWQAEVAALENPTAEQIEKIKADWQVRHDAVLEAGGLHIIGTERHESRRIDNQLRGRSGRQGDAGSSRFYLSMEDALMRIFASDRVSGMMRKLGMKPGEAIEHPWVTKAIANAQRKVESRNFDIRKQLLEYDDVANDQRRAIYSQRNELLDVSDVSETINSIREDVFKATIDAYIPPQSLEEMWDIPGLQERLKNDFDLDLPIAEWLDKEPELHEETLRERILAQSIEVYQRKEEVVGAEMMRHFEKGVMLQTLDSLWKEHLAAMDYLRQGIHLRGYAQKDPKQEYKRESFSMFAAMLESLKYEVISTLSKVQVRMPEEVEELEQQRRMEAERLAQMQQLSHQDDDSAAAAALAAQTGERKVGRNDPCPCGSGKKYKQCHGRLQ
Measured potencies and affinities stand elsewhere.
Consider the following compounds; for each one, report its Percent Effect.
Could you give me the number in %? Just the number is fine.

Data request: Form field: Percent Effect recorded for OC(CN1CCOCC1)CN1CCc2c(ncn2C2CC2)C1 (stereo not given) with Protein translocase subunit SecA (Escherichia coli (strain K12)) (UniProt P10408) (enter value)
Data returned: -2.85

Data request: Now the compound CN(C)CC1CN(Cc2coc(-c3ccccc3Cl)n2)CCO1 (stereo not given)
Data returned: -1.66

Data request: Now the compound CN1CCC(c2ncc3c(n2)CCN(C(=O)CC2C=CCC2)C3)CC1 (stereo not given)
Data returned: 1.34

Data request: Now the compound Cc1cnn(CC2CCCCN2CCn2cncn2)c1 (stereo not given)
Data returned: -1.55

Data request: Now the compound O=C(C1CCOC1)N1CCc2ncc(CNc3ccccn3)n2CC1 (stereo not given)
Data returned: -0.228

Data request: Now the compound Cn1nc2c(cc1=O)CN(Cc1nc(C(C)(C)C)no1)CC2
Data returned: -2.61

Data request: Now the compound Cc1cc(C)n2cc(CN3CCCC3Cn3nc(C)nc3C)nc2n1 (stereo not given)
Data returned: -6.31

Data request: Now the compound COC1CCCN(Cc2nc(Cc3ccccc3F)no2)C1 (stereo not given)
Data returned: -7.36

Data request: Now the compound CCc1nc(C)c(C(=O)NCCN2CCC(C)CC2)s1
Data returned: -2.31

Data request: Now the compound CN(Cc1ccco1)[C@@H]1CN(Cc2ccc(F)cc2)C[C@@H]2CCCO[C@@H]21
Data returned: -5.51

Data request: Now the compound CC(C)C(NC(=O)N1CCN(c2ccc(Cl)cc2)CC1)C(=O)NC1CC1 (stereo not given)
Data returned: -5.57

Data request: Now the compound O=C(Cn1c(=O)nc2n1C(=O)N(c1ccccc1)C2)Nc1ccccc1
Data returned: -6.94

Data request: Now the compound Cc1cc(C(=O)NCC(C)N2CCc3ccccc32)no1 (stereo not given)
Data returned: 0.558

Data request: Now the compound Cc1cc(NC(=O)C(C)N2CCCN(c3nccs3)CC2)on1 (stereo not given)
Data returned: -5.38

Data request: Now the compound CCOC1COC2(CCN(Cc3cccc(F)c3)CC2)C1 (stereo not given)
Data returned: -1.34

Data request: Now the compound O=C1NCCN(CC2CC2)C12CCN(Cc1ccco1)CC2
Data returned: -2.83

Data request: Now the compound CC(C)N(C)C(=O)CN1CCCC(c2ccc(C(=O)O)cc2)C1 (stereo not given)
Data returned: -2.28

Data request: Now the compound O=C(c1ccc(F)cc1)N1CCC2(CCCN2CC2CC2)CC1
Data returned: -2.9

Data request: Now the compound CCOCC1CC2(CCN(C(=O)c3ccccn3)CC2)CO1 (stereo not given)
Data returned: -5.71

Data request: Now the compound c1cnnc(N2CCCC2CNCc2ccsc2)c1 (stereo not given)
Data returned: -2.09

Data request: Now the compound CCOCC1CC2(CCN(Cc3ccccn3)CC2)CO1 (stereo not given)
Data returned: -9.03

Data request: Now the compound CCc1ncnc2c1CCN(Cc1ccc(OC)cc1)CC2
Data returned: -4.58

Data request: Now the compound Cc1noc(C2CCN(C(=O)CCNS(C)(=O)=O)CC2)n1
Data returned: -2.97

Data request: Now the compound Cc1ccc(NC(=O)C2CSCN2C(=O)c2cnn(C)c2)c(C)c1 (stereo not given)
Data returned: -6.12

Data request: Now the compound CCc1nccn1C1CCCN(C(=O)Cc2ccc(OC)c(F)c2)C1 (stereo not given)
Data returned: -7.36

All values here come from ChEMBL document CHEMBL3988442.
